So I've got a bunch of compounds here, and I need their cytotoxicity at 10 µM values.
assay: Toxicity liver stage against HepG2, at 10uM; format: cell-based; set-up: test concentration 10 uM, cell line HepG2-A16-CD81EGFP; settings: human, HepG2-A16-CD81EGFP cells; read-out: INHIBITION
Quick note: give the figure in %, leave out the unit.

The measured cytotoxicity at 10 µM associated with Cc1noc(C)c1CN1CCC(c2nc3cc(Cl)ccc3o2)CC1 reads -4.22

The measured cytotoxicity at 10 µM associated with CCc1ccc(NC(=O)CC2Cn3ncnc3NC2=O)cc1 (centres undefined) reads 6.47

The measured cytotoxicity at 10 µM associated with CCN1CCC(NC(=O)c2ccc(F)cc2I)CC1 reads -10

The measured cytotoxicity at 10 µM associated with CCc1noc(CN(C)C2CCN(c3sccc3C#N)C2=O)n1 (centres undefined) reads 7.73

----------
So I've got a bunch of compounds here, and I need their cytotoxicity at 10 µM values.
test: Toxicity liver stage against HepG2, at 10uM; assay type: cell-based; design: test concentration 10 uM, cell line HepG2-A16-CD81EGFP; conditions: human, HepG2-A16-CD81EGFP cells; read-out: INHIBITION

The measured cytotoxicity at 10 µM associated with CCCc1nc(CN(CC)Cc2ccoc2)no1 reads -2.52%

The measured cytotoxicity at 10 µM associated with COc1ccc(C2=CCN(C(=O)C3CC(=O)N(C4CC4)C3)CC2)cc1 (stereo not given) reads -6.66%

The measured cytotoxicity at 10 µM associated with Cc1nccc(N2C[C@H](NC(=O)CNS(C)(=O)=O)[C@@H](C3CC3)C2)n1 reads -13.8%

The measured cytotoxicity at 10 µM associated with CNC(C(=O)N1CCC(c2nccn2C(C)C)CC1)c1ccccc1 (stereo not given) reads 0.258%

The measured cytotoxicity at 10 µM associated with CC(C)n1cnnc1C1CCCN(S(=O)(=O)c2c[nH]cn2)C1 (stereo not given) reads -6.6%

The measured cytotoxicity at 10 µM associated with COCC1CN(Cc2ccncc2)Cc2nn(CC3CC3)cc21 (stereo not given) reads -73.7%

The measured cytotoxicity at 10 µM associated with CN1CCn2c(-c3cccc(F)c3)cnc2C12CCN(CC1CC1)CC2 reads 8.13%

The measured cytotoxicity at 10 µM associated with CCc1nc(C2CCCN(C(=O)CCn3ccccc3=O)C2)no1 (stereo not given) reads -12.3%

The measured cytotoxicity at 10 µM associated with CCn1cc2c(n1)C(COC)CN(Cc1ccoc1)C2 (stereo not given) reads 7.89%

The measured cytotoxicity at 10 µM associated with COCc1nc(C(=O)N2CCCC2c2cc(C)on2)cs1 (stereo not given) reads -5.83%

The measured cytotoxicity at 10 µM associated with COc1cc(Cl)ccc1C(=O)NCc1nncn1C reads -4.35%

The measured cytotoxicity at 10 µM associated with Cc1noc(-c2ccc(-n3ncc(C(=O)O)c3C)nc2)n1 reads 0.748%

The measured cytotoxicity at 10 µM associated with CCOc1cccc(NC(=O)c2cscn2)n1 reads -3.59%

The measured cytotoxicity at 10 µM associated with FC(F)(F)Oc1cccc(CNCc2ccc(-n3cncn3)nc2)c1 reads 20.3%

The measured cytotoxicity at 10 µM associated with CCN1C[C@H]2CCN(C(=O)c3cc[nH]n3)CC[C@H]2S1(=O)=O reads 12.2%

The measured cytotoxicity at 10 µM associated with COc1cccc2c1CCN(C(=O)NCc1nnc3ccccn13)C2 reads 0.67%

The measured cytotoxicity at 10 µM associated with COc1nccc(N2CC[C@H](N3CCOCC3)[C@H](CCCO)C2)c1C#N reads -148%

The measured cytotoxicity at 10 µM associated with O=C(NCc1ccccn1)Nc1ccc2[nH]nnc2c1 reads 6.77%

The measured cytotoxicity at 10 µM associated with O=S1(=O)C[C@@H]2[C@H](C1)N(Cc1ncc[nH]1)CCN2CCCc1ccccc1 reads 0.662%

The measured cytotoxicity at 10 µM associated with OC1CCN(c2ccnc(NCCN3CCc4ccccc4C3)n2)C1 (stereo not given) reads -11.8%

The measured cytotoxicity at 10 µM associated with Cc1cc(C(=O)NC2(c3cccc(F)c3)CCOCC2)no1 reads 1.42%

The measured cytotoxicity at 10 µM associated with Cc1ccc(C)c(CS(=O)(=O)CC(=O)NCCCOC(C)C)c1 reads -2.51%

The measured cytotoxicity at 10 µM associated with CCOc1ccc(C#N)cc1NCC(=O)NC(=O)NC reads -8.35%

The measured cytotoxicity at 10 µM associated with CC(C)N(C)C(=O)c1ccc(Cl)c(NC(=O)C2CCC2)c1 reads -2.74%

The measured cytotoxicity at 10 µM associated with O=C(NCc1cnc2n1CCN(Cc1ccsc1)CC2)C1CCC1 reads -2.53%

The measured cytotoxicity at 10 µM associated with FC(F)(F)c1cc(C2CCCN(c3cnccn3)C2)n2ccnc2n1 (stereo not given) reads 6.39%

The measured cytotoxicity at 10 µM associated with N#Cc1cc(N2CCC(CS(N)(=O)=O)CC2)nc2ccccc12 reads -6.03%

The measured cytotoxicity at 10 µM associated with COc1ccc(CN(C)[C@@H]2COC[C@H]2c2ccc(F)cc2)c(OC)c1 reads 8.54%

The measured cytotoxicity at 10 µM associated with COc1cccc(CC(=O)N2CCCC(c3n[nH]c4nccnc34)C2)c1 (stereo not given) reads 4.62%

The measured cytotoxicity at 10 µM associated with Cc1ccnc(OC[C@]23COC[C@H]2CN(C(=O)c2ccnn2C)C3)n1 reads 3.16%

The measured cytotoxicity at 10 µM associated with CC(C)COC1CC2(CCN(C(=O)Cc3ccccn3)CC2)C1 reads -113%

The measured cytotoxicity at 10 µM associated with O=C(CNc1ccccc1Cl)Nc1cc(-n2cnnn2)ccc1F reads -4.38%

The measured cytotoxicity at 10 µM associated with O=C(c1ccoc1)N1CCC(Nc2cccnn2)CC1 reads -5.85%

The measured cytotoxicity at 10 µM associated with O=C1CO[C@H]2CN(S(=O)(=O)c3ccccc3)C[C@H]2N1c1ccccc1 reads -2.6%

The measured cytotoxicity at 10 µM associated with CN1CCCCC1c1ncc2c(n1)CCN(Cc1ccc(F)cc1)C2 (stereo not given) reads -17.6%

The measured cytotoxicity at 10 µM associated with CC(NC(=O)CCCc1ccc(Cl)cc1)c1n[nH]c(=O)[nH]1 (stereo not given) reads 3.26%

The measured cytotoxicity at 10 µM associated with Cc1nc(Nc2ncccn2)cc(C2CN(C(=O)c3cccnc3)C2)n1 reads 4.42%

The measured cytotoxicity at 10 µM associated with CS(=O)(=O)CCNC(=O)c1ccc(-c2ccco2)[nH]c1=O reads -22.8%

The measured cytotoxicity at 10 µM associated with OCC1CCCN1c1cc(NCCNc2ccccn2)ncn1 (stereo not given) reads -20.1%

The measured cytotoxicity at 10 µM associated with O=C(NC1CCOC1)c1cccc(S(=O)(=O)NCCCc2ncc[nH]2)c1 (stereo not given) reads -2.26%

The measured cytotoxicity at 10 µM associated with Cc1ccc(CS(=O)(=O)CC(=O)NCc2ccccc2F)cc1 reads 0.515%

The measured cytotoxicity at 10 µM associated with Cc1[nH]ccc1C(=O)N1CCN(C)C2(CCC(=O)N(C)CC2)C1 (stereo not given) reads 5.95%

The measured cytotoxicity at 10 µM associated with O=S(=O)(CCNCCn1cccn1)c1ccccc1 reads 11.5%

The measured cytotoxicity at 10 µM associated with CN(C)CCNC(=O)c1nc2c(s1)CCCN2C(=O)C1CC1 reads -108%

The measured cytotoxicity at 10 µM associated with CCc1[nH]c2c(CNc3cc(C)nc(NC)n3)cc(C)cc2c1C reads -41%

----------
assay: Toxicity liver stage against HepG2, at 10uM; assay type: cell-based; set-up: test concentration 10 uM, cell line HepG2-A16-CD81EGFP; conditions: human, HepG2-A16-CD81EGFP cells; read-out: INHIBITION
Observation Type: cytotoxicity at 10 µM (%)
Quick note: give the figure in %, leave out the unit.

The measured cytotoxicity at 10 µM associated with CNC(=O)[C@@H]1C[C@H]2CN(Cc3ccc(C)s3)C[C@H]2N1C(C)=O reads 2.76

The measured cytotoxicity at 10 µM associated with CNC(=O)CN1CCC(c2nn(C)c(=O)n2-c2ccccc2)CC1 reads -14

The measured cytotoxicity at 10 µM associated with OC(CN1CCN(CC2CC2)CC1)c1ccc(Br)cc1 (stereo unspecified) reads -8.69

The measured cytotoxicity at 10 µM associated with Cc1nc(C(=O)N2CCCC2c2cnn(C)c2)ccc1C#N (stereo unspecified) reads -13.4

The measured cytotoxicity at 10 µM associated with COCC1COCCC12CCN(C(=O)CC1Cc3ccccc3C1)CC2 (stereo unspecified) reads 4.03

The measured cytotoxicity at 10 µM associated with CC(=O)N1CCC(NC(=O)c2cc(Cl)ccc2O)CC1 reads 0.0966
